assay_explanation: Thermodynamic aqueous solubility at pH 7.4
Type: physicochemical
test_settings: 10 mM HEPES buffer, thermodynamic from solid, pH 7.4 (10 mM HEPES), 25.0 °C, read-out: thermodynamic aqueous solubility S7.4
experimental_endpoint: solubility thermodynamic (µM)
Field: numeric (µM). Do not append units.

{"columns": ["structure_smiles_string", "solubility thermodynamic / µM"],
 "data": [
  ["Oc1c(CN2CCCCC2)cc(Cl)c2cccnc12", 254]
]}

Now for a further compound.
solubility thermodynamic measured on Oc1c(CN2CCCC2)cc(Cl)c2cccnc12 = 516

---

Items are presented alongside their recorded pKd.
experimental_system: human serum albumin (HSA), Trp214 / site I (Homo sapiens, UniProt P02768)
Sequence (P02768 25-609): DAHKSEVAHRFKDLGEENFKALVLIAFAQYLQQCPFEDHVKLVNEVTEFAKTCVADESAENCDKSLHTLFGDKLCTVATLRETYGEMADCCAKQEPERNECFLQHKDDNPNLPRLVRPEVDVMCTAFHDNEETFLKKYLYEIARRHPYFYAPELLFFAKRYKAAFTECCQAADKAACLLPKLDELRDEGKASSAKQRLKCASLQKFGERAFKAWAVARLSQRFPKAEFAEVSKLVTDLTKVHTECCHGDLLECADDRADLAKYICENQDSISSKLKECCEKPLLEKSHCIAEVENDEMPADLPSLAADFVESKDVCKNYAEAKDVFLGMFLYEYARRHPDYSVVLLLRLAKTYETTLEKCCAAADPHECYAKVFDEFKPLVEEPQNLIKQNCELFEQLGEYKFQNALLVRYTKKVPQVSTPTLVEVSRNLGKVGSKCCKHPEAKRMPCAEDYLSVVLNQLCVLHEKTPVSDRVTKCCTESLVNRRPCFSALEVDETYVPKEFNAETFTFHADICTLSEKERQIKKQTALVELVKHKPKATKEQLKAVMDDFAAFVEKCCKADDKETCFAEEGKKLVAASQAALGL
assay_explanation: HSA Trp214 fluorescence quenching
Lab note — pKd values are minus log10 of concentrations in M.

{"columns": ["compound", "reading"],
 "data": [
  ["Oc1c(CN2CCCCC2)cc(Cl)c2cccnc12 [HQCl-pip]", 5.10]
]}

# evaluate next
get_value(item= Oc1c(CN2CCCC2)cc(Cl)c2cccnc12 [HQCl-pyr] , readout=pKd) returns 4.60

Values from paper PMC11653257
